Target sequence: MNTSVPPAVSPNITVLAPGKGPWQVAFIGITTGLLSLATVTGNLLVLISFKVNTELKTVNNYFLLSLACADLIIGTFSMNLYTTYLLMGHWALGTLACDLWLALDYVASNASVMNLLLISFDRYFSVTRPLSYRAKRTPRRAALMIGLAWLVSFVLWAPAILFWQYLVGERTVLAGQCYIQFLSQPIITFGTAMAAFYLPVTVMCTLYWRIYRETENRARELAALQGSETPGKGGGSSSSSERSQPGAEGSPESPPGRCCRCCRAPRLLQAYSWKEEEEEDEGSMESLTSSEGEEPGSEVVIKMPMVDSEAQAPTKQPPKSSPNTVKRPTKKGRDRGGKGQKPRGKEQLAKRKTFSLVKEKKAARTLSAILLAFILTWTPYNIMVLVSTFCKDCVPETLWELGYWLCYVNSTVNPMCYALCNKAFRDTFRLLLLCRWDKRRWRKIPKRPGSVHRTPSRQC
outcome-measure: IC50 (nM)

Example results:
molecule | unit-text | observed-value
Cc1cc(-c2cccs2)nnc1NCCN1CCOCC1 | nM | 4000
CCCc1cc(NCC(C)(C)N(CC)CC)nnc1-c1ccccc1O | nM | 130
CCc1cc(-c2ccccc2)nnc1NCCN1CCOCC1 | nM | 1600
CCN(CC)C(C)(C)CNc1cc(-c2ccccc2)c(-c2ccccc2)nn1 | nM | 40

(A) c1ccc(Cc2cc(-c3ccccc3)nnc2NCCN2CCOCC2)cc1
(B) CCCc1cc(NC2CCCN2CC)nnc1-c1ccccc1 (single isomer, unassigned; (+))
Which entry has a larger number for IC50, A or B ? The response must carry the label of the picked entry.
A

----------
Experiment: Lethal dose in mice after oral administration
Assay type: toxicity
Settings: mouse, in vivo
outcome-measure: LD50 (mg/kg)
Unit mg/kg implied. Number only.

What does the data say about its LD50? Entry: `CCN(CC)C(C)(C)CNc1cc(-c2ccccc2)c(-c2ccccc2)nn1`
250

----------
Molecular target: Muscarinic acetylcholine receptor M1 (Rattus norvegicus, UniProt P08482)
Test: Displacement of [3H]pirenzepine from cerebral Muscarinic acetylcholine receptor M1
outcome-measure: IC50 (nM)

smiles-representation | outcome-measure | unit-text | observed-value
Cc1cc(-c2ccc3ccccc3c2)nnc1NCCN1CCOCC1 | IC50 | nM | 7500

(1) Cc1c(NCCN2CCOCC2)nnc(-c2ccccc2)c1C
(2) CCN(CC)CCNc1nnc(-c2ccccc2)cc1C
# returns the entry with the larger IC50; inputs 1 and 2 Which one? Tell me its label.
1
